test system: SNB-75 CNS; assay: NCI-60 one-dose screen, 48 h (100 = growth as untreated, 0 = no growth, -100 = all killed); conditions: 10 µM unless noted
The panel holds about 83,000 compounds, 20% with a hit somewhere; the sample as a whole holds those more often. Active and inactive are the calls of the source. The calls were made as follows: active = growth percent below 10; inactive = the rest.
endpoint.label: growth

Illustrative cases are given below, each with its answer.
Data request: Find the measured growth of `Cn1cc(-c2ccc3c(Nc4cccc(NC(=O)Nc5cccc(F)c5)c4)ncnc3c2)cn1` and report it.
Data returned: 43.8% (inactive)

Data request: Find the measured growth of `Cc1c(N2CCCCC2)[nH]c2ccccc12` and report it.
Data returned: 117% (inactive)

New cases:
Data request: Find the measured growth of `COc1ccc(-c2cc(-c3ccc(Nc4nc(Nc5ccc(Cl)cc5)nc(Nc5ccc(Cl)cc5)n4)cc3)no2)cc1` and report it.
Data returned: 89.1% (inactive)

Data request: Find the measured growth of `CN(C)CCCN(CCC1CCCCC1)CCC1CCCCC1` and report it.
Data returned: 62.2% (inactive)

Data request: Find the measured growth of `C=C(C)Cn1c(SCC(=O)c2cccs2)nc2sc3c(c2c1=O)CCCC3` and report it.
Data returned: 62.6% (inactive)

Data request: Find the measured growth of `Cn1ncc(CC(=O)O)c1-n1nnc2cc(Cl)ccc2c1=O` and report it.
Data returned: 81.1% (inactive)

Data request: Find the measured growth of `COc1ccc(-c2csc(NC(=O)CSc3nc(C)cc(=O)[nH]3)n2)cc1` and report it.
Data returned: 95.9% (inactive)

Data request: Find the measured growth of `CC(=O)c1c(/C=C/c2ccc(C)cc2)c2ccccc2[nH]c1=O` and report it.
Data returned: 73.7% (inactive)

Data request: Find the measured growth of `CCOC(=O)CSc1nc2sc3c(c2c(=O)n1-c1ccccc1)CCCCC3` and report it.
Data returned: 112% (inactive)

Data request: Find the measured growth of `CCOC(=O)c1c(C)c2c(n1Cc1ccccc1)CSc1cc(C#N)c(=O)[nH]c1-2` and report it.
Data returned: 25.4% [100 µM] (inactive)

Data request: Find the measured growth of `c1ccc(-c2cn3nc(-c4c[nH]c5ccccc45)sc3n2)cc1` and report it.
Data returned: 54.1% (inactive)

Data request: Find the measured growth of `CC1=NN(c2cccc(Cl)c2)C(=O)/C1=C\C=C\c1ccccc1` and report it.
Data returned: 50.9% (inactive)

Data request: Find the measured growth of `CCCCCCCCCCCCCCCCCCOc1ccccc1CC(=O)OCC[N+]1(C)CCCCC1` and report it.
Data returned: 46.3% (inactive)

Data request: Find the measured growth of Cc1ccc(C23CCC(=O)N2CCc2cncn23)cc1 (configuration not stated) and report it.
Data returned: 111% (inactive)

Data request: Find the measured growth of `Cn1ccnc1C(=O)/C=C/c1ccc(CC(=O)Nc2cc(F)c(F)c(F)c2)cc1` and report it.
Data returned: -3.33% (active)

Data request: Find the measured growth of `C=C1C(=O)O[C@H]2[C@H]1CC/C(COC(=O)NCc1ccc(Cn3c(=O)sn(CCCC)c3=O)cc1)=C\CC[C@@]1(C)O[C@@H]21` and report it.
Data returned: 82.7% (inactive)

Data request: Find the measured growth of `O=C(NCCN1CCOCC1)c1cncnc1Nc1ccc2c(ccn2Cc2ccccn2)c1` and report it.
Data returned: 82.4% (inactive)

Data request: Find the measured growth of `C#CCOc1cc(/C=N/Nc2nc(-c3ccc(OC)cc3)cs2)ccc1O` and report it.
Data returned: 95.5% (inactive)

Data request: Find the measured growth of C=C1CC[C@@H]2[C@](C)(COC(C)=O)[C@H](OC(C)=O)CC[C@@]2(C)[C@@H]1CC(Nc1ccc(S(=O)(=O)Nc2nccc(C)n2)cc1)C1=CCOC1=O (some centres not stated) and report it.
Data returned: 9.66% (active)

Data request: Find the measured growth of `CCCc1cc(CCC)n2nc(N)nc2n1` and report it.
Data returned: 95.6% (inactive)

Data request: Find the measured growth of `O=c1[nH]c(CN2CCN(c3ccccc3)CC2)nc2c(Br)cc(Br)cc12` and report it.
Data returned: 95.8% (inactive)

Data request: Find the measured growth of `FC(F)(F)c1cc(N2CCCCC2)nc(NCCCNc2ccnc3cc(Cl)ccc23)n1` and report it.
Data returned: 71.9% (inactive)
